Read-out: Forkhead box O3 (FOXO3), FOXO3 (gene 2309)
assay_protocol: LTEA_HepaRG_FOXO3: Life Technologies and Expression Analysis (LTEA) Assay for Forkhead box O3 (FOXO3) using HepaRG (AID 2283459)
test_parameters: mRNA level, 48 h; actives raise or lower the signal
Active and inactive are the calls of the source. Rule for the calls: active = hit-call score of the fitted dose curve at least 0.9, where 1 is the maximum; inactive = score below 0.9.
Select the matching outcome among active, inactive

Asked: Per the assay record, what outcome was assigned to `CCCCc1nc2cccnc2n1Cc1ccc(-c2ccccc2-c2nnn[nH]2)cc1` ?
Given back: inactive

Asked: Can you check `CC(C)OC(=O)C(C)(C)Oc1ccc(C(=O)c2ccc(Cl)cc2)cc1` next?
Given back: inactive

Asked: Same thing, different compound: `C=CCc1ccc(OC)c(OC)c1`
Given back: inactive

Asked: Try CC(COCC(C)OC(=O)c1ccccc1)OC(=O)c1ccccc1 (centres undefined) next.
Given back: inactive

Asked: Same read-out for `Cc1occc(=O)c1O` ?
Given back: inactive

Asked: Try `CCc1nc(N)nc(N)c1-c1ccc(Cl)cc1` next.
Given back: inactive

Asked: Thanks! And `CN(C)CCCN1c2ccccc2Sc2ccc(Cl)cc21` ?
Given back: inactive

Asked: And then `Nc1nc(Cl)nc2c1ncn2[C@H]1C[C@H](O)[C@@H](CO)O1` , what is it?
Given back: active

Asked: Now consider `C/C=C/C=C/C(=O)O` and answer again.
Given back: inactive

Asked: Try `COc1ccc(OC(F)(F)F)cc1CN[C@H]1CCCN[C@H]1c1ccccc1` next.
Given back: active

Asked: Item: CCCCC(CC)CO (centres undefined)
Given back: inactive

Asked: Further, for `O=C1CCCCC1` ?
Given back: inactive

Asked: What do we get for `CCCCCCC(C=O)=Cc1ccccc1` ?
Given back: inactive

Asked: Item: `CSc1ccc(Oc2ccc(S(N)(=O)=O)cc2CN(C)C)cc1C`
Given back: inactive

----------
assay_protocol: ATG_M_06_CIS: Attagene CIS-FACTORIAL HepG2 Assay for M06 Transcription Factor (Internal Marker) (AID 2282950)
test_parameters: HepG2 Attagene CIS-FACTORIAL M06 internal marker reporter; actives raise or lower the signal
Activity calls are given as the source filed them. The calls were made as follows: active = hit-call score of the fitted dose curve at least 0.9, where 1 is the maximum; inactive = score below 0.9.
attribute_measured: outcome

// worked examples, outcome included
Cc1occc(=O)c1O	inactive
CCCCCCC(CCCCCCCCCCC(=O)OCC(COC(C)=O)OC(C)=O)OC(C)=O (stereo unspecified)	inactive
CC(COCC(C)OC(=O)c1ccccc1)OC(=O)c1ccccc1 (stereo unspecified)	inactive
CC(=O)[C@@]1(O)CC[C@H]2[C@@H]3CCC4=CC(=O)CC[C@]4(C)[C@H]3CC[C@@]21C	inactive
CCCCCCC(C=O)=Cc1ccccc1	inactive

Asked: # get_value(readout='outcome', item= `N[C@@H](Cc1c[nH]c2ccccc12)C(=O)O` )
Given back: inactive

Asked: Now give it for `C/C=C/C=C/C(=O)O` too.
Given back: inactive

Asked: Another molecule to check: `CC1(C)C(=O)NC(=O)N1CO`
Given back: inactive

----------
Read-out: urokinase plasminogen activator (uPA), PLAU (gene 5328)
assay_protocol: BSK_BE3C_uPA: BioMAP Diversity Plus: BE3C Assay for urokinase plasminogen activator (uPA) Biomarker Activity (AID 2283038)
test_parameters: primary human bronchial epithelial cells; actives raise or lower the signal
The source made the active and inactive calls. How the source made its calls: active means hit-call score of the fitted dose curve at least 0.9, where 1 is the maximum; inactive means score below 0.9.
I would appreciate it if you answered using one of these outcomes: active, inactive

Asked: Test call, this compound: `Cc1ccc(-c2cc(C(F)(F)F)nn2-c2ccc(S(N)(=O)=O)cc2)cc1`
Given back: active

Asked: Note, next up: `CC(C)c1cccc(C(C)C)c1`
Given back: inactive

Asked: Field entry: `O=NO`
Given back: inactive

Asked: Then `COC(=O)CCCC(=O)OC` ?
Given back: inactive

Asked: Check `CC(=O)OCC(COC(C)=O)OC(C)=O` too.
Given back: inactive

Asked: Request: `O=C1c2c(O)cccc2Cc2cccc(O)c21`
Given back: inactive

Asked: // same read-out, input: Cc1c(C)c2c(c(C)c1O)CCC(C)(COc1ccc(CC3SC(=O)NC3=O)cc1)O2 (centres undefined)
Given back: active

Asked: `CN(C)CCCN(C)CCCN(C)C` , same question.
Given back: inactive

Asked: And then `CCCCCCCCCCCCCCCCO` , what is it?
Given back: inactive

Asked: Please answer likewise for `C/C=C/C=C/C(=O)O`
Given back: inactive

Asked: For `CCCCCCC(C=O)=Cc1ccccc1` then?
Given back: inactive

Asked: Can you handle `COc1ccc(C(=O)Nc2nc3ccccc3c(NCc3ccccc3)c2C#N)cc1` next?
Given back: inactive

Asked: Same lookup for `CCOCCOCCO` , please.
Given back: inactive

Asked: Thanks! And `NC(=Nc1ccccc1)Nc1ccccc1` ?
Given back: inactive
